FYI, the data here is from patent US20200283478A1.

Assay System: T1, His-tagged PCSK9Δhelix (human, UniProt Q8NBP7 31-152; Q8NBP7 168-692)
T1 construct: Human PCSK9 M1-Q692 with an engineered TEV site, cut by TEV protease; new N-terminus of the catalytic domain is S-A168; also called His-PCSK9Δhelix; not shown: His tag
T1 sequence (Q8NBP7 31-152, stated change not applied, chain 1 of 2): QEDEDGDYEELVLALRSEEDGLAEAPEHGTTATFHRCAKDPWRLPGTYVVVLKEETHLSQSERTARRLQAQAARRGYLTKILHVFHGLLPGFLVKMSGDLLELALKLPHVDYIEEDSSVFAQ
T1 sequence (Q8NBP7 other isoform, or with tags, fused parts or gaps mutant, chain 2 of 2): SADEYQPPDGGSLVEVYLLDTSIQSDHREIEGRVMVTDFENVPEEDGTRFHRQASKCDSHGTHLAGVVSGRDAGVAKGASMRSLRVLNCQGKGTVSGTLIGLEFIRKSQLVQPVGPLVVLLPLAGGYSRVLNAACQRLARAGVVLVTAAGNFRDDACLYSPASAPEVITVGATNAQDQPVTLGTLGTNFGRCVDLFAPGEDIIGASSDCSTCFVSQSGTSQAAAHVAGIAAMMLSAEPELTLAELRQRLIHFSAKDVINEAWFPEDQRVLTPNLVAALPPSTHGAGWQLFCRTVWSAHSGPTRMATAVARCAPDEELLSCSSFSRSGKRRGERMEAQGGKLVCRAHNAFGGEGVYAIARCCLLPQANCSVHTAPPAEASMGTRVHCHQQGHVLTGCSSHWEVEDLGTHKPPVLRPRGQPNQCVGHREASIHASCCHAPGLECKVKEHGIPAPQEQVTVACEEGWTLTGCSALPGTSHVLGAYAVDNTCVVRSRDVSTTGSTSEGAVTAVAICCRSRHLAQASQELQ
Measurement Protocol: TR-FRET competition (PCSK9Δhelix/Ab20 assay); competitor Ab20
Bridge positions count the residues as written; N and C are the ends.
For each of the binders below, state its IC50.
# number only, unit µM dropped from output

So for Ac-CRLPWNAQRIGLPC-NH2 (disulfide 1-14; SMILES CC[C@H](C)[C@@H]1NC(=O)[C@H](CCCNC(=N)N)NC(=O)[C@H](CCC(N)=O)NC(=O)[C@H](C)NC(=O)[C@H](CC(N)=O)NC(=O)[C@H](Cc2c[nH]c3ccccc23)NC(=O)[C@@H]2CCCN2C(=O)[C@H](CC(C)C)NC(=O)[C@H](CCCNC(=N)N)NC(=O)[C@@H](NC(C)=O)CSSC[C@@H](C(N)=O)NC(=O)[C@@H]2CCCN2C(=O)[C@H](CC(C)C)NC(=O)CNC1=O) [Compound 74 (Ac-CRLPWNAQRIGLPC-NH2)] , the logged IC50 turned out to be 49.5

Record summary for Ac-CRLPWNLQRIGGGC-NH2 (disulfide 1-14; SMILES CC[C@H](C)[C@@H]1NC(=O)[C@H](CCCNC(=N)N)NC(=O)[C@H](CCC(N)=O)NC(=O)[C@H](CC(C)C)NC(=O)[C@H](CC(N)=O)NC(=O)[C@H](Cc2c[nH]c3ccccc23)NC(=O)[C@@H]2CCCN2C(=O)[C@H](CC(C)C)NC(=O)[C@H](CCCNC(=N)N)NC(=O)[C@@H](NC(C)=O)CSSC[C@@H](C(N)=O)NC(=O)CNC(=O)CNC(=O)CNC1=O) [Compound 81 (Ac-CRLPWNLQRIGGGC-NH2)] : reported IC50 = 28.8

So, Ac-CRLPWNLQRIGLPC-NH2 (disulfide 1-14; SMILES CC[C@H](C)[C@@H]1NC(=O)[C@H](CCCNC(=N)N)NC(=O)[C@H](CCC(N)=O)NC(=O)[C@H](CC(C)C)NC(=O)[C@H](CC(N)=O)NC(=O)[C@H](Cc2c[nH]c3ccccc23)NC(=O)[C@@H]2CCCN2C(=O)[C@H](CC(C)C)NC(=O)[C@H](CCCNC(=N)N)NC(=O)[C@@H](NC(C)=O)CSSC[C@@H](C(N)=O)NC(=O)[C@@H]2CCCN2C(=O)[C@H](CC(C)C)NC(=O)CNC1=O) [Compound 32 (Ac-CRLPWNLQRIGLPC-NH2)] ? Its IC50 was 0.97
